A collection of compounds and their measured pIC50
Target: human glucagon receptor (Homo sapiens, UniProt P47871)
Construct: expressed in transfected cells; host or cells: BHK (baby hamster kidney) cells
Sequence (P47871 26-477): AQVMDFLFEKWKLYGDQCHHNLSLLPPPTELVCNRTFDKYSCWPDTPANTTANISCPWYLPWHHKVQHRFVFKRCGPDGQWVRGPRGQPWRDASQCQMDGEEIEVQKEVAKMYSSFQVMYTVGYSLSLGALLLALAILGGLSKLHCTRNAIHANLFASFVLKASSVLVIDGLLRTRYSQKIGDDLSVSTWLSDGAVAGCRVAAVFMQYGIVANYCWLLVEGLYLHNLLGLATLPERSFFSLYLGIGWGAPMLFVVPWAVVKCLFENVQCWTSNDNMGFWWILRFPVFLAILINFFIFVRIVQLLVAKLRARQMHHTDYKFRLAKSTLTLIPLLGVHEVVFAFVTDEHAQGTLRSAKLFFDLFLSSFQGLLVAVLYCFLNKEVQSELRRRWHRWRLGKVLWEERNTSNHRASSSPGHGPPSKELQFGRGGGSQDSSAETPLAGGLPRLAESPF
Test: Glucagon Binding Assay (III)
Conditions: BHK cell membranes, WGA SPA beads, 125I-glucagon; read-out: Glu Bd Assay (III) IC50
Experimental: BHK (baby hamster kidney cell line) cells were transfected with the human glucagon receptor and a membrane preparation of the cells was prepared. All steps in the membrane preparation were kept on ice or performed at 4° C. BHK cells were harvested and centrifuged. […] The glucagon binding assay was carried out in opti plates (Polystyrene Microplates, Packard). […] The opti plates were counted in a Topcounter. Non-specific binding was determined with 500 nM of glucagon.
Scale for pIC50: -log10 of concentration given in mol/L; no unit attached.

Use these answered entries as a reference point.
q: Give the measured pIC50 of CC(C)(C)C1CCC(N(Cc2ccc(C(=O)NCCC(=O)O)cc2)C(=O)Nc2ccc(F)c(F)c2)CC1 (stereo not drawn) [Example 72] .
a: 6.17

q: Another compound to check: O=C(O)CCNC(=O)c1ccc(CN(C(=O)Nc2ccc(OC(F)(F)F)cc2)c2cnc3ccccc3c2)cc1 [Example 436]
a: 5.70

q: Another compound to check: CCCCC(CC)CN(Cc1ccc(C(=O)NCCC(=O)O)cc1)C(=O)Nc1ccc(CC)cc1 (stereo not drawn) [Example 42]
a: 6.93

Continuing:
q: Give the measured pIC50 of CCCCC(CC)CN(Cc1ccc(C(=O)NCCC(=O)O)cc1)C(=O)Nc1ccc(Oc2ccccc2)cc1 (stereo not drawn) [Example 14] .
a: 6.74

q: Another compound to check: CCCCNC(=O)c1cccc(NC(=O)N(Cc2ccc(C(=O)Nc3nn[nH]n3)cc2)c2ccc(C3CCCCC3)cc2)c1 [Example 465]
a: 6.22

q: Another compound to check: COc1ccc(NC(=O)N(Cc2ccc(C(=O)Nc3nn[nH]n3)cc2)c2ccc(C(C)(C)C)cc2)cc1S(C)(=O)=O [Example 339]
a: 6.10

q: Another compound to check: CC(C)(C)[C@H]1CC[C@H](N(Cc2ccc(C(=O)Nc3nn[nH]n3)s2)C(=O)Nc2ccc(OC(F)(F)F)cc2)CC1 [Example 578]
a: 6.65

q: Another compound to check: CCCCN1C(=O)c2ccc(NC(=O)N(Cc3ccc(C(=O)NCCC(=O)O)cc3)C3CCC(C(C)(C)C)CC3)cc2C1=O (stereo not drawn) [Example 637]
a: 6.94

q: Another compound to check: CC(C)(C)C1CCC(N(Cc2ccc(C(=O)Nc3nn[nH]n3)cc2)C(=O)CCC(=O)c2ccc(Cl)cc2)CC1 (stereo not drawn) [Example 540]
a: 6.27

q: Another compound to check: CC(Oc1ccc(Cl)cc1)C(=O)N(Cc1ccc(C(=O)Nc2nn[nH]n2)cc1)c1ccc(C2CCCCC2)cc1 (stereo not drawn) [Example 491]
a: 6.58

q: Another compound to check: CC1CCC(N(Cc2ccc(C(=O)NCCC(=O)O)cc2)C(=O)Nc2ccc(Oc3ccccc3)cc2)CC1 (stereo not drawn) [Example 22]
a: 5.96

q: Another compound to check: CC(C)(C)C1CCC(N(Cc2ccc(C(=O)Nc3nn[nH]n3)cc2)C(=O)C2=CCc3ccccc32)CC1 (stereo not drawn) [Example 474]
a: 5.90

q: Another compound to check: CSc1ccc(NC(=O)N(Cc2ccc(C(=O)NCCC(=O)O)cc2)C2CCC(C(C)(C)C)CC2)cc1 (stereo not drawn) [Example 30]
a: 6.86

q: Another compound to check: CC(C)(C)C1CCC(N(Cc2ccc(C(=O)NCCC(=O)O)cc2)C(=O)NCCc2ccccc2)CC1 (stereo not drawn) [Example 27]
a: 5.70

q: Another compound to check: O=C(Nc1nn[nH]n1)c1ccc(CN(C(=O)Nc2cccc(SC3CCCC3)c2)c2ccc(C3CCCCC3)cc2)cc1 [Example 300]
a: 6.71

q: Another compound to check: O=C(Nc1nn[nH]n1)c1ccc(CN(C(=O)/C=C/c2ccccc2Br)c2ccc(C3CCCCC3)cc2)cc1 [Example 501]
a: 6.66

q: Another compound to check: O=C(O)CCNC(=O)c1ccc(CN(C(=O)Oc2cccc(OC(F)(F)F)c2)c2ccc(C3CCCCC3)cc2)cc1 [Example 421]
a: 6.28

q: Another compound to check: COc1cc(NC(=O)N(Cc2ccc(C(=O)Nc3nn[nH]n3)cc2)C2CCC(C(C)(C)C)CC2)cc(C(F)(F)F)c1 (stereo not drawn) [Example 602]
a: 7.59

q: Another compound to check: CN(C)C(=O)c1cccc(NC(=O)N(Cc2ccc(C(=O)Nc3nn[nH]n3)cc2)c2ccc(C3CCCCC3)cc2)c1 [Example 463]
a: 6.59

q: Another compound to check: CCCCC(CC)CN(Cc1ccc(C(=O)NCCC(=O)O)cc1)C(=O)Nc1cccc(C(F)(F)F)c1 (stereo not drawn) [Example 21]
a: 5.82

q: Another compound to check: CCC(C)c1ccc(N(Cc2ccc(C(=O)Nc3nn[nH]n3)cc2)C(=O)Nc2cc(C(=O)OC)cc(C(=O)OC)c2)cc1 (stereo not drawn) [Example 290]
a: 7.00
